Structures can show the parent of a compound that is named as a salt.
METRIC: melting point

MOLECULE | melting point
c1cc(-c2ccoc2)nc(NCCCc2ncc[nH]2)n1 (as salt: hydrobromid) | 234 to 236 °C
CCCCc1cc(-c2ccoc2)nc(N2CCN(C)CC2)n1 (as salt: hydrobromid) | 179 to 180 °C
CCCc1cnc(N2CCN(C)CC2)nc1-c1ccoc1 (as salt: hydrobromid) | 206 to 208 °C
c1ccc(CN2CCN(c3nccc(-c4ccoc4)n3)CC2)cc1 (as salt: hydrobromid) | > 280 °C
CCc1cc(-c2ccoc2)nc(N2CCN(C)CC2)n1 (as salt: hydrobromid) | 287 to 288 °C

Input line: I'd like to know its melting point. The molecule in question is CN1CCN(c2nccc(-c3cc4ccccc4s3)n2)CC1 (as salt: hydrobromid)
Output line: 299 to 300 °C

Input line: // query: CN1CCN(c2nc(-c3ccoc3)cc(C(F)(F)F)n2)CC1 (as salt: hydrochloride)
Output line: > 300 °C

Input line: Request: CCCCc1nc(N2CCN(C)CC2)nc(-c2ccoc2)c1CCC (as salt: hydrobromid)
Output line: 203 °C (dec.)

###

Reported melting point values follow for various molecules
Structures can show the parent of a compound that is named as a salt.

MOLECULE | REPORTED
c1cc(-c2ccoc2)nc(N2CCCCC2)n1 (as salt: hydrobromid) | 190 to 191 °C
CCCN1CCN(c2nccc(-c3ccoc3)n2)CC1 (as salt: hydrobromid) | 274 to 277 °C
Cc1cc(-c2ccnc(N3CCN(C)CC3)n2)co1 (as salt: hydrobromid) | 275 °C (dec.)

Input line: Give its melting point value. Item: Cc1ccc(-c2ccnc(N3CCN(C)CC3)n2)o1 (as salt: hydrobromid)
Output line: 263 to 265 °C

###

target: human 5-HT7b receptors (Homo sapiens); construct: expressed in transfected cells; host or cells: HEK293; test: 5-HT7 competition radioligand binding assay ([3H]5-CT); conditions: HEK293 cells overexpressing human 5-HT7b receptors, at least two independent experiments in triplicate, read-out: Ki ± S.D. 5-HT7 binding affinity
METRIC: pKi
A value of pKi is the negative decimal logarithm of a concentration given in moles per litre.

Input line: Look up pKi: CCCCc1cc(-c2ccsc2)cc(N2CCN(C)CC2)c1
Output line: 6.58

Input line: Continue with c1cc(-c2ccoc2)nc(N2CCNCC2)n1
Output line: 8.05

Input line: Entry to check: CCCc1cnc(N2CCN(C)CC2)nc1-c1ccoc1
Output line: 5.87

###

Counter-ions that a name gives are not always drawn.
Quick reference for melting point among some compounds

Consider the worked cases shown below.
COMPOUND | REPORTED
CN1CCN(c2nccc(-c3cc4ccccc4o3)n2)CC1 (as salt: hydrobromid) | > 300 °C
c1cc(-c2ccoc2)nc(N2CCOCC2)n1 | 58 to 59 °C
Cc1cc(-c2cccs2)cc(N2CCN(C)CC2)n1 (as salt: hydrobromid) | 132 to 134 °C
Cc1occc1-c1ccnc(N2CCN(C)CC2)n1 (as salt: hydrobromid) | 263 to 265 °C
CN1CCCN(c2nccc(-c3ccoc3)n2)CC1 (as salt: hydrobromid) | 176 to 177 °C
c1cc(-c2ccoc2)nc(N2CC[N+]3(CCOCC3)CC2)n1 (as salt: iodide) | > 200 °C (dec.)
c1cc(-c2ccoc2)nc(N2CCNCC2)n1 (as salt: hydrobromid) | 241 to 242 °C

Turning to the following compound.
Input line: Look up melting point for this compound: CCCCCCc1cc(-c2coc(C)c2)nc(N2CCN(C)CC2)n1 (as salt: hydrobromid)
Output line: 242 °C (dec.)

###

target: human 5-HT7b receptors (Homo sapiens, UniProt P34969)
Sequence (P34969 1-432): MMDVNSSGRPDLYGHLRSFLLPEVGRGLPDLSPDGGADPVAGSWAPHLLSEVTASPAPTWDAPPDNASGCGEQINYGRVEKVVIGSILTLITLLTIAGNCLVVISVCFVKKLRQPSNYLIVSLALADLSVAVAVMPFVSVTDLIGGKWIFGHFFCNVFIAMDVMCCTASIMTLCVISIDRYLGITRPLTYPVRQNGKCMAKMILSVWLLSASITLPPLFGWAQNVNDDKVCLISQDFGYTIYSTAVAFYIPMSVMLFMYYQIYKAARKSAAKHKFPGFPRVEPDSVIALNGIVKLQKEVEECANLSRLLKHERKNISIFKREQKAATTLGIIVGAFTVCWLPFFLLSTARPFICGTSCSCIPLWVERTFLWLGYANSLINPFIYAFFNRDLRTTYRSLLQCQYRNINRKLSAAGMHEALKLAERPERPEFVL
Below, each entry is listed alongside its reported Ki.
# number only, unit nM dropped from output

MOLECULE | METRIC | REPORTED
CN1CCN(c2nccc(-c3cccnc3)n2)CC1 [Compound 39] | Ki | 780

Input line: What value of Ki has been recorded for this entry: CN1CCN(c2cccc(-c3ccco3)n2)CC1 [Compound 59]
Output line: 1140

Input line: Same thing, different molecule: CCN1CCN(c2nccc(-c3ccoc3)n2)CC1 [Compound 3]
Output line: 10

###

Ki data for human 5-HT7b receptors (Homo sapiens, UniProt P34969) follow.
Field format: number, assumed nM, no unit text.

MOLECULE | UNIT_OF_MEASUREMENT | REPORTED
CN1CCN(c2nccc(-c3cc4ccccc4n3C)n2)CC1 | nM | 1530
CN1CCN(c2cccc(-c3ccoc3)c2)CC1 [Compound 60, 1-[3-(3-Furyl)phenyl]-4-methylpiperazine] | nM | 31
Cc1cc(-c2ccoc2)nc(N2CCN(C)CC2)n1 | nM | 3.9
CN1CCN(c2cccc(-c3ccco3)c2)CC1 [Compound 63, 1-[3-(2-Furyl)phenyl]-4-methylpiperazine] | nM | 914
CCCCc1cc(-c2cccs2)cc(N2CCN(C)CC2)c1 | nM | 734
CN1CCN(c2cccc(-c3cccs3)c2)CC1 | nM | 542

Input line: Need Ki of Cc1cc(-c2ccoc2)cc(N2CCN(C)CC2)c1 , thanks.
Output line: 37

Input line: Next molecule up: Cc1cc(-c2ccnc(N3CCN(C)CC3)n2)co1
Output line: 462

###

Parameter 'readout' = Ki; parameter 'system' = human 5-HT7b receptors (Homo sapiens, UniProt P34969).
Use nM as the unit, but write only the number.

Input line: Using the record for CCCCc1cc(-c2ccoc2)cc(N2CCN(C)CC2)c1 , report its Ki.
Output line: 106

Input line: Now consider Cc1cc(-c2ccsc2)cc(N2CCN(C)CC2)c1 .
Output line: 47

###

target: human 5-HT7b receptors (Homo sapiens)
Threshold 300 nM: Ki strictly smaller gives Criterion met, otherwise Criterion not met.

// below: answered molecules
SMILES | TARGET_SYSTEM | CLASS
CN1CCN(c2nc(-c3ccoc3)cc(N(C)C)n2)CC1 | human 5-HT7b receptors (Homo sapiens) | Criterion not met
CCc1cc(-c2ccoc2)nc(N2CCN(C)CC2)n1 | human 5-HT7b receptors (Homo sapiens) | Criterion met
CN1CCN(c2nccc(-n3ccnc3)n2)CC1 | human 5-HT7b receptors (Homo sapiens) | Criterion not met
CCc1cc(-c2ccco2)nc(N2CCN(C)CC2)n1 | human 5-HT7b receptors (Homo sapiens) | Criterion not met
OCCN1CCN(c2nccc(-c3ccoc3)n2)CC1 | human 5-HT7b receptors (Homo sapiens) | Criterion met

Query molecule follows.
Input line: # strict comparison: is reported Ki < 300 nM? input = CN1CCN(c2cccc(-c3ccsc3)c2)CC1
Output line: Criterion not met
